Sourced from ChEMBL document CHEMBL5614460

- Method Description: AUC (0 to infinity) in male Sprague-Dawley rat at 2 mg/kg, iv measured for 24 hrs by LC/MS analysis
- Format: ADME, organism-based
- Measurement Conditions: in vivo
Measurement Name: AUC(0-inf) (ng·h/mL)
Note: unit ng·h/mL is implicit; provide only the numeric part.

Please fill in: AUC(0-inf) reported for N[C@@H]1c2ccccc2CC12CCN(c1cnc(Sc3cccc(NC(=O)c4cnccc4O)c3Cl)cn1)CC2 = 1260

* * *

- Measurement Target: Tyrosine-protein phosphatase non-receptor type 11 (Homo sapiens, UniProt Q06124)
- Method Description: Allosteric inhibition of N-terminal His-tagged human recombinant SHP2 extracted from Escherichia coli using DiFMUP as substrate preincubated with compound for 60 mins followed by substrate addition and measured after 30 mins by fluorescence based microplate reader analysis
pIC50: −log10 of the molar value.
Given measured pIC50, output 1 if it is greater than or equal to 8 and 0 if not.

{"columns": ["Smiles Notation", "Assigned Category"],
 "data": [
  ["C[C@@H]1OCC2(CCN(c3cnc(Sc4cccc(NC(=O)c5ncccc5Cl)c4Cl)cn3)CC2)[C@@H]1N", 1]
]}

Q) Is pIC50 for CC1(N)CCN(c2cnc(Sc3cccc(NC(=O)c4cccc(Cl)n4)c3Cl)cn2)CC1 at or above 8?
A) 0

Q) Is pIC50 for CC1(N)CCN(c2cnc(Sc3cccc(NC(=O)C4CCCCC4)c3Cl)cn2)CC1 at or above 8?
A) 0

Q) Is pIC50 for CC1(N)CCN(c2cnc(Sc3cccc(NC(=O)c4ccco4)c3Cl)cn2)CC1 at or above 8?
A) 0

Q) Is pIC50 for CC1(N)CCN(c2cnc(Sc3cccc(NC(=O)c4ccncc4Cl)c3Cl)cn2)CC1 at or above 8?
A) 0

Q) Is pIC50 for CC1(N)CCN(c2cnc(Sc3cccc(NC(=O)c4ncccc4Cl)c3Cl)cn2)CC1 at or above 8?
A) 1

* * *

- Method Description: Tmax in male Sprague-Dawley rat at 10 mg/kg, po measured for 24 hrs by LC/MS analysis
- Assay type: ADME, organism-based
- Measurement Conditions: in vivo
Measurement Name: Tmax
Numeric answer plus unit only.

Please fill in: Tmax reported for N[C@@H]1c2ccccc2CC12CCN(c1cnc(Sc3cccc(NC(=O)c4cnccc4O)c3Cl)cn1)CC2 = 3.24 h

* * *

- Measurement Target: Tyrosine-protein phosphatase non-receptor type 11 (Homo sapiens) (UniProt Q06124)
- Sequence (whole entry): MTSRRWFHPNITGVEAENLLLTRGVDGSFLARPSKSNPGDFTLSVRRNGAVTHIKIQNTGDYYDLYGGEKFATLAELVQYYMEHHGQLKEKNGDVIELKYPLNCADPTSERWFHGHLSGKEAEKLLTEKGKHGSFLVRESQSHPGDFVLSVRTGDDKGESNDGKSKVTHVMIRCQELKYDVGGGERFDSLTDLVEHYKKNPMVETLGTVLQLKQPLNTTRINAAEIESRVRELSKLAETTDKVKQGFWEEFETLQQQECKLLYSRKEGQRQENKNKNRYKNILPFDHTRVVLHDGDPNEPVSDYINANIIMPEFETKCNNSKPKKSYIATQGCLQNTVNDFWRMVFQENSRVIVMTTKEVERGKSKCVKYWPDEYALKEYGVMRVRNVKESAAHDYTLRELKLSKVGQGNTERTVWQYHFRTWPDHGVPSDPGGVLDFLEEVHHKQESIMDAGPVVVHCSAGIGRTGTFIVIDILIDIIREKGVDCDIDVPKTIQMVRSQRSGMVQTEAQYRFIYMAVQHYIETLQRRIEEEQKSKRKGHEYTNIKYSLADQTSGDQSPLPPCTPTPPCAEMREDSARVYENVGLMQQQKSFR
- Method Description: Allosteric inhibition of N-terminal His-tagged human recombinant SHP2 extracted from Escherichia coli using DiFMUP as substrate at 10 uM preincubated with compound for 60 mins followed by substrate addition and measured after 30 mins by fluorescence based microplate reader analysis relative to control
- Measurement Conditions: time 90.0 min
The entries below come with measured inhibition values attached.
Note: unit % is implicit; provide only the numeric part.

Below, 2 compounds whose answers are already recorded.
{"columns": ["Smiles Notation", "inhibition / %"],
 "data": [
  ["Nc1nc(N2CCN(C(=O)C3(N)CCCCC3)CC2)cnc1Sc1ccnc(N)c1Cl", 14.3],
  ["Nc1nc(N2CCN(C(=O)C3(N)CCC3)CC2)cnc1Sc1ccnc(N)c1Cl", 44.2]
]}

Note: attention shifts to another entry.
Please fill in: inhibition reported for Nc1nc(N2CCN(C(=O)[C@H]3CCCN3)CC2)cnc1Sc1ccnc(N)c1Cl = 50.2

* * *

- Measurement Target: Tyrosine-protein phosphatase non-receptor type 11 (Homo sapiens, UniProt Q06124)
- Sequence (Q06124 whole entry): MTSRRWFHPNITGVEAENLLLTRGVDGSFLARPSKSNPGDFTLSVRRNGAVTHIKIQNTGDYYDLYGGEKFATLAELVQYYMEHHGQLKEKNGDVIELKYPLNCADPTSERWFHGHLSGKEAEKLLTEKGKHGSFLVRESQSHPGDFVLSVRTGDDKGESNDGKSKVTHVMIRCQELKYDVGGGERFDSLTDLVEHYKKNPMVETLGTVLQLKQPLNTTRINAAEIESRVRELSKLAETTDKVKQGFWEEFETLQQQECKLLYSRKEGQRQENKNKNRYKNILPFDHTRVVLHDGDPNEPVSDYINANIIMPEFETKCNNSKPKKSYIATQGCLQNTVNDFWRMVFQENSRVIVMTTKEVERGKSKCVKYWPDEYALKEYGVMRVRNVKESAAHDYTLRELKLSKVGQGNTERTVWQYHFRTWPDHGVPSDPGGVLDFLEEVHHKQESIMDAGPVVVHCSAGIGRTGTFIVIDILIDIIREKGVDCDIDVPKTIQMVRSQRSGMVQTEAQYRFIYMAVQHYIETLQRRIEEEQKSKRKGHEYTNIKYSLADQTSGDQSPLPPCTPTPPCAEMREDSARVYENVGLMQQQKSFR
- Method Description: Allosteric inhibition of N-terminal His-tagged human recombinant SHP2 extracted from Escherichia coli using DiFMUP as substrate preincubated with compound for 60 mins followed by substrate addition and measured after 30 mins by fluorescence based microplate reader analysis
pIC50: −log10 of the molar value.
Given measured pIC50, output class 1 if it is greater than or equal to 7 and class 0 if not.

# count of solved cases: 2
{"columns": ["Smiles Notation", "Assigned Category"],
 "data": [
  ["CC1(N)CCN(c2cnc(Sc3cccc(NC(=O)c4ccc(Cl)cn4)c3Cl)cn2)CC1", "class 0"],
  ["N[C@@H]1c2ccccc2CC12CCN(c1cnc(Sc3cccc(NC(=O)c4cnccc4O)c3Cl)cn1)CC2", "class 1"]
]}

Q) Is pIC50 for Nc1nc(N2CCN(C(=O)C3(N)CCCC3)CC2)cnc1Sc1ccnc(N)c1Cl at or above 7?
A) class 0

Q) Is pIC50 for CC1(N)CCN(c2cnc(Sc3cccc(NC(=O)Cc4ccccc4)c3Cl)cn2)CC1 at or above 7?
A) class 1

* * *

- Method Description: Oral bioavailability in male Sprague-Dawley rat at 10 mg/kg measured for 24 hrs by LC/MS analysis
- Format: ADME, organism-based
- Measurement Conditions: in vivo
Measurement Name: bioavailability (%)
Note: unit % is implicit; provide only the numeric part.

Please fill in: bioavailability reported for N[C@@H]1c2ccccc2CC12CCN(c1cnc(Sc3cccc(NC(=O)c4cnccc4O)c3Cl)cn1)CC2 = 11.9

* * *

- Measurement Target: Tyrosine-protein phosphatase non-receptor type 11 (Homo sapiens)
- Method Description: Allosteric inhibition of N-terminal His-tagged human recombinant SHP2 extracted from Escherichia coli using DiFMUP as substrate at 10 uM preincubated with compound for 60 mins followed by substrate addition and measured after 30 mins by fluorescence based microplate reader analysis relative to control
- Measurement Conditions: time 90.0 min
Measurement Name: inhibition (%)
Note: unit % is implicit; provide only the numeric part.

{"columns": ["Smiles Notation", "Measurement Target", "Unit Name", "inhibition"],
 "data": [
  ["Nc1nc(N2CCN(C(=O)C3(N)CCCC3)CC2)cnc1Sc1ccnc(N)c1Cl", "Tyrosine-protein phosphatase non-receptor type 11 (Homo sapiens)", "%", 95.2],
  ["C[C@H](N)C(=O)N1CCN(c2cnc(Sc3ccnc(N)c3Cl)c(N)n2)CC1", "Tyrosine-protein phosphatase non-receptor type 11 (Homo sapiens)", "%", 13.2],
  ["Nc1nc(N2CCN(C(=O)[C@@H]3CCCN3)CC2)cnc1Sc1ccnc(N)c1Cl", "Tyrosine-protein phosphatase non-receptor type 11 (Homo sapiens)", "%", 48.8],
  ["NCC(=O)N1CCN(c2cnc(Sc3ccnc(N)c3Cl)c(N)n2)CC1", "Tyrosine-protein phosphatase non-receptor type 11 (Homo sapiens)", "%", 58.8]
]}

Please fill in: inhibition reported for C[C@@H](N)C(=O)N1CCN(c2cnc(Sc3ccnc(N)c3Cl)c(N)n2)CC1 = 43.8

* * *

- System: MV4-11
- Method Description: Antiproliferative activity against human MV4-11 cells assessed as inhibition of cell proliferation incubated for 72 hrs by CCK-8 assay
- Assay type: functional, cell-based
- Measurement Conditions: mv4-11
Measurement Name: IC50 (nM)
Note: unit nM is implicit; provide only the numeric part.

Param item: C[C@@H]1OCC2(CCN(c3cnc(Sc4ccnc(N)c4Cl)c(N)n3)CC2)[C@@H]1N ; param system: MV4-11; output IC50: 39
